Target: BaF3 cell lines stably transfected with kinase EGFR L858R/T790M (Homo sapiens, UniProt P00533, T790M/L858R, cells depend on it)
Sequence (P00533 whole entry T790M/L858R): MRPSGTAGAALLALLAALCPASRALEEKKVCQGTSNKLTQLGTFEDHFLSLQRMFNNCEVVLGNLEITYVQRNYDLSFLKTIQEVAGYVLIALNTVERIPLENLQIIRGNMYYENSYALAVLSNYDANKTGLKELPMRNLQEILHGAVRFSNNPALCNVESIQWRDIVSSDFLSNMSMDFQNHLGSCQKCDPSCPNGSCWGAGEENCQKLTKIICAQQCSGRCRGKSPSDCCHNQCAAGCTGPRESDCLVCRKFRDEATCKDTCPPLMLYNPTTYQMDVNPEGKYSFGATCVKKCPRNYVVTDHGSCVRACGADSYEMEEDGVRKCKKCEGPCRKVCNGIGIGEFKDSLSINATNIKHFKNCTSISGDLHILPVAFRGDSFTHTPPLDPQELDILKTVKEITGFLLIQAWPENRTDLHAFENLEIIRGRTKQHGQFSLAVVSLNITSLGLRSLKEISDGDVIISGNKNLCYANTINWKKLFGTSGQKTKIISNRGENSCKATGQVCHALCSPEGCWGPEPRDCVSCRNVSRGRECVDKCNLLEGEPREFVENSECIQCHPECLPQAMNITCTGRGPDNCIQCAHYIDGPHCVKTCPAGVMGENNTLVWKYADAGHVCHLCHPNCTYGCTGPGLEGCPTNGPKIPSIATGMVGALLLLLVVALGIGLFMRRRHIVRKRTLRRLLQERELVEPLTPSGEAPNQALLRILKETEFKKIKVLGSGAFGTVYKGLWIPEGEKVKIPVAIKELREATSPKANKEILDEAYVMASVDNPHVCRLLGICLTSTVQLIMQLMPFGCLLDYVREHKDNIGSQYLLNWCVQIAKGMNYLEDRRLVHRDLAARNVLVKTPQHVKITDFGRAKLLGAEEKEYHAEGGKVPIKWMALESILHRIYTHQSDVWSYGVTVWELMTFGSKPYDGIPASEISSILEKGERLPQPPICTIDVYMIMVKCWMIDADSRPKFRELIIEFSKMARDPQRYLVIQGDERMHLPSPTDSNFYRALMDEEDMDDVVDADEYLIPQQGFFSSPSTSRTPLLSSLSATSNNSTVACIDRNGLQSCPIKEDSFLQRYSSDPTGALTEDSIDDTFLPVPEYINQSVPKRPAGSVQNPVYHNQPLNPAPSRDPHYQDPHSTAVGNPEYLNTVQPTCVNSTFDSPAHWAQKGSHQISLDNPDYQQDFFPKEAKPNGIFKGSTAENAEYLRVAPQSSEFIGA
Assay: Growth inhibition of BaF3 cell line stably transfected with kinase EGFR L858R/T790M (MTS)
Assay type: cell-based
Conditions: 48 h, read-out: growth inhibitory activity IC50, L858R/T790M
Quick list: GI50 per entry.

C=Cc1cnc(Nc2cc(CC)c(N3CCC(N4CCN(C)CC4)CC3)cc2OC)nc1Nc1ccc2nccnc2c1S(C)(=O)=O: 50 to 500 nM
C=C(C)c1cnc(Nc2cnn(C)c2)nc1Nc1ccc2nccnc2c1N(C)S(C)(=O)=O: ≤ 50 nM
C=Cc1cnc(Nc2ccc3c(c2)CCN(C)CC3)nc1Nc1ccc2nccnc2c1P(C)(C)=O: 50 to 500 nM
C=Cc1cnc(Nc2ccc(N3CCC(N4CCN(C)CC4)CC3)cc2OC)nc1Nc1ccc2nccnc2c1S(=O)(=O)C(C)C: 50 to 500 nM
C=Cc1cnc(Nc2ccc3c(c2)CN(C)CC3)nc1Nc1ccc2nccnc2c1N(C)S(C)(=O)=O: ≤ 50 nM

// switching to the query molecule
molecule C=Cc1cnc(Nc2cc(C)c(N3CCC(N4CCN(C)CC4)CC3)cc2OC)nc1Nc1ccc2nccnc2c1NS(C)(=O)=O , GI50 observed: 50 to 500 nM

====

Target: BaF3 cell lines stably transfected with kinase EGFR L858R/T790M (Homo sapiens, UniProt P00533, T790M/L858R, cells depend on it)
Assay: Growth inhibition of BaF3 cell line stably transfected with kinase EGFR L858R/T790M (MTS)
Format: cell-based
Conditions: 48 h, read-out: growth inhibitory activity IC50, L858R/T790M
measured.parameter: GI50

Please review the following examples before continuing.
C=Cc1cnc(Nc2cc(C(C)C)c(N3CCC(N4CCN(C)CC4)CC3)cc2OC)nc1Nc1ccc2nccnc2c1NS(C)(=O)=O [II-35]: 500 to 2500 nM
C=Cc1cnc(Nc2cc[nH]n2)nc1Nc1ccc2nccnc2c1N(C)S(C)(=O)=O [II-59]: 500 to 2500 nM
C=Cc1cnc(Nc2cc(C(C)C)c(N3CCC(N4CCN(C)CC4)CC3)cc2OC)nc1Nc1ccc2nccnc2c1S(C)(=O)=O [III-11]: 50 to 500 nM
C=Cc1cnc(Nc2cc(CC)c(N3CCC(N4CCN(C)CC4)CC3)cc2OC(F)(F)F)nc1Nc1ccc2nccnc2c1P(C)(C)=O [Compound I-6]: ≤ 50 nM

compound C=Cc1cnc(Nc2cc(CC)c(N3CCC(N4CCN(C)CC4)CC3)cc2OC)nc1Nc1ccc2nccnc2c1N(C1CC1)S(C)(=O)=O [II-14] , GI50 observed: ≤ 50 nM

compound C=C(C)c1cnc(Nc2ccc(N3CCC(N4CCN(C)CC4)CC3)c(CC)c2)nc1Nc1ccc2nccnc2c1N(C)S(C)(=O)=O [II-24] , GI50 observed: ≤ 50 nM

compound C=Cc1cnc(Nc2ccc(N3CCC(N4CCN(C)CC4)CC3)c(F)c2F)nc1Nc1ccc2nccnc2c1NS(C)(=O)=O [II-45] , GI50 observed: 50 to 500 nM

compound C=Cc1cnc(Nc2cc(CC)c(N3CCC(N(C)C)CC3)cc2OC)nc1Nc1ccc2nccnc2c1S(=O)(=O)NC [IV-13] , GI50 observed: 50 to 500 nM

compound C=Cc1cnc(Nc2cc(CC)c(N3CCC(N(C)C)CC3)cc2OC)nc1Nc1ccc2nccnc2c1P(C)(C)=O [Compound I-2] , GI50 observed: ≤ 50 nM

compound C=Cc1cnc(Nc2ccc(N3CCC(N4CCN(C)CC4)CC3)cc2OC)nc1Nc1ccc2nccnc2c1N(C)S(C)(=O)=O [II-16] , GI50 observed: 500 to 2500 nM

compound C=Cc1cnc(Nc2ccn(CC)n2)nc1Nc1ccc2nccnc2c1N(C)S(C)(=O)=O [II-60] , GI50 observed: 500 to 2500 nM

compound C=Cc1cnc(Nc2ccc3c(c2)C(C)CN(C)CC3)nc1Nc1ccc2nccnc2c1N(C)S(C)(=O)=O (stereo not shown) [II-78] , GI50 observed: ≤ 50 nM

compound C=Cc1cnc(Nc2cc(CC)c(N3CCC(N4CCN(C)CC4)CC3)cc2OC)nc1Nc1ccc2nccnc2c1NS(C)(=O)=O [II-32] , GI50 observed: 50 to 500 nM

compound C=Cc1cnc(Nc2cc(CC)c(NCCN(C)C)cc2OC)nc1Nc1ccc2nccnc2c1N(C)S(C)(=O)=O [II-50] , GI50 observed: 50 to 500 nM

compound C=Cc1cnc(Nc2ccc(N3CCC(N4CCN(C)CC4)CC3)c(CC)c2)nc1Nc1ccc2nccnc2c1P(C)(C)=O [Compound I-18] , GI50 observed: 50 to 500 nM

compound CCc1cc(Nc2ncc(/C=C/C3CC3)c(Nc3ccc4nccnc4c3N(C)S(C)(=O)=O)n2)c(OC)cc1N1CCC(N2CCN(C)CC2)CC1 [II-28] , GI50 observed: 500 to 2500 nM

compound C=Cc1cnc(Nc2cc(C)c(N3CCC(N4CCN(C)CC4)CC3)cc2OC)nc1Nc1ccc2nccnc2c1S(C)(=O)=O [III-9] , GI50 observed: 50 to 500 nM

compound C=Cc1cnc(Nc2ccc(N3CCC(N4CCN(C)CC4)CC3)c(F)c2F)nc1Nc1ccc2nccnc2c1S(=O)(=O)NC [IV-10] , GI50 observed: ≤ 50 nM

compound C=Cc1cnc(Nc2cc(CC)c(N3CCC(N(C)C)C3)cc2OC)nc1Nc1ccc2nccnc2c1N(C)S(C)(=O)=O (stereo not shown) [II-3] , GI50 observed: ≤ 50 nM

compound C=Cc1cnc(Nc2cc(C)c(N3CCC(N4CCN(C)CC4)CC3)cc2OC)nc1Nc1ccc2nccnc2c1S(=O)(=O)C(C)C [III-19] , GI50 observed: 50 to 500 nM

compound CCc1cc(Nc2ncc(/C=C/C3CC3)c(Nc3ccc4nccnc4c3P(C)(C)=O)n2)c(OC)cc1N1CCC(N2CCN(C)CC2)CC1 [Compound I-11] , GI50 observed: 50 to 500 nM

compound C=Cc1cnc(Nc2cc(CC)c(N3CCC(N4CCN(C)CC4)CC3)cc2OC)nc1Nc1ccc2nccnc2c1N(C)S(=O)(=O)C1CC1 [II-11] , GI50 observed: 50 to 500 nM

compound CCc1cc(Nc2ncc(C=C(C)C)c(Nc3ccc4nccnc4c3P(C)(C)=O)n2)c(OC)cc1N1CCC(N2CCN(C)CC2)CC1 [Compound I-10] , GI50 observed: 50 to 500 nM
